# experimental-parameters: in 2-(2-methoxypropoxy) propanol, 303.15 K
property-label: solubility (mole fraction)
API doc: respond with a numeric literal and nothing else, no unit.

Prompt: Requested field: solubility (mole fraction). Item: `O=P(NCc1cccc(CNP(=O)(Oc2ccccc2)Oc2ccccc2)c1)(Oc1ccccc1)Oc1ccccc1`
Completion: 0.00401

Prompt: # get_value(readout='solubility (mole fraction)', item= `O=P(Oc1ccccc1)(Oc1ccccc1)N1CCN(P(=O)(Oc2ccccc2)Oc2ccccc2)CC1` )
Completion: 0.00139

----------
Would you kindly list solubility (mole fraction) for each of these compounds?
# experimental-parameters: in 2-(2-methoxypropoxy) propanol, 343.15 K
Quick one: just the number, no unit, thanks!

Prompt: Given `O=P(NCc1cccc(CNP(=O)(Oc2ccccc2)Oc2ccccc2)c1)(Oc1ccccc1)Oc1ccccc1` , state its recorded solubility (mole fraction).
Completion: 0.0156

Prompt: What does the record list as solubility (mole fraction) for `O=P(Oc1ccccc1)(Oc1ccccc1)N1CCN(P(=O)(Oc2ccccc2)Oc2ccccc2)CC1` ?
Completion: 0.00562
